Where these numbers come from: patent US11981658B2

studyTarget: EGFR Del19/C797S (Homo sapiens, UniProt P00533, C797S/DEL746-750)
Sequence (P00533 with tags, fused parts or gaps DEL746-750/C797S): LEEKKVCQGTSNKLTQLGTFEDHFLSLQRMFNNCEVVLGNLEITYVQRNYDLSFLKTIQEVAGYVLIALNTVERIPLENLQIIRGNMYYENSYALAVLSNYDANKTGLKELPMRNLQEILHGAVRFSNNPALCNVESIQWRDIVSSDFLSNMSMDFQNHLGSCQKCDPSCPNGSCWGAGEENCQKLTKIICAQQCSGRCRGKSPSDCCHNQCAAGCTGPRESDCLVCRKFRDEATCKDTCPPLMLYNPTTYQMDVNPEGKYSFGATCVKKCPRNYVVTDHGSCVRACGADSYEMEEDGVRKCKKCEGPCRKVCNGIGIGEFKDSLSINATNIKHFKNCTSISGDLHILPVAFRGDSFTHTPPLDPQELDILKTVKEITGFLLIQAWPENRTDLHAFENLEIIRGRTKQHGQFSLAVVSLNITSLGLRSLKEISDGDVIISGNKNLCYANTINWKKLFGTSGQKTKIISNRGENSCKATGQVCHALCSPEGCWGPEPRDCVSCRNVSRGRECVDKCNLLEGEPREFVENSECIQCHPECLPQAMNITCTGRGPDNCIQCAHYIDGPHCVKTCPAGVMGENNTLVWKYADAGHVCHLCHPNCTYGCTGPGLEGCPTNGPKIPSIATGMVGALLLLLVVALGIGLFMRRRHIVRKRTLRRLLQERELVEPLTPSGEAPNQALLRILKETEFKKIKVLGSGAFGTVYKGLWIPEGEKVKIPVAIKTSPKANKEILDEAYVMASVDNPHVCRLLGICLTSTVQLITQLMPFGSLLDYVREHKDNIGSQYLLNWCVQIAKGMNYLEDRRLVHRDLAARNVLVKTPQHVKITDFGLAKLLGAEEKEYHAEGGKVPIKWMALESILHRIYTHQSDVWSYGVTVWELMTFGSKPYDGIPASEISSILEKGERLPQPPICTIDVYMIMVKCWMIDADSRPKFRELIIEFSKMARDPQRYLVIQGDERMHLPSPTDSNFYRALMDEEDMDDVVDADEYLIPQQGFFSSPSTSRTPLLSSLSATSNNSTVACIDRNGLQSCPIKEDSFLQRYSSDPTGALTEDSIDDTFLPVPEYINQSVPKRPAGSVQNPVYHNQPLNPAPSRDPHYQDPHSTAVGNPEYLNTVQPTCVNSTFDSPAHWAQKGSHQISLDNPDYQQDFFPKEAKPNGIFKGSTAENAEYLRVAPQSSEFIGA
protocolSummary: Biochemical EGFR kinase inhibition assay (Lance Ultra TR-FRET), double mutant del19/C797S
details: Km ATP; read-out: IC50 Del19/C797S (nM), Km ATP
Classify: met when IC50 is strictly less than 3 nM; not met when IC50 is not.

CC1(O)CCN(c2cc(Nc3ccnc(-c4cnn(S(=O)(=O)C5CC5)c4)n3)ncc2C#CC2(F)CCOC2)CC1 (centres unmarked)
met
Cn1cc(C#Cc2cnc(Nc3ccnc(-c4cnn(S(=O)(=O)C5CC5)c4)n3)cc2N2CCC(F)(CNCCF)CC2)cn1
not met
CN(C)CCC1CCCN(c2cc(Nc3ccnc(-c4cnn(S(=O)(=O)C5CC5)c4)n3)ncc2C#Cc2cnn(C)c2)C1 (centres unmarked)
met
CC1(CO)CCN(c2cc(Nc3ccnc(-c4cnn(S(=O)(=O)C5CC5)c4)n3)ncc2C#CC2(O)CCCOC2)CC1 (centres unmarked)
met
O=S(=O)(C1CC1)n1cc(-c2nccc(Nc3cc(N4CCC5(CCO5)CC4)c(C#Cc4ncc(CN5CCOCC5)cn4)cn3)n2)cn1
met
CC1(O)CCN(c2cc(Nc3ccnc(-c4cnn(S(=O)(=O)C5CC5)c4)n3)ncc2C#CC2CCS(=O)(=O)C2)CC1 (centres unmarked)
not met
O=S(=O)(C1CC1)n1cc(-c2nccc(Nc3cc(NC4CCC(O)CC4)c(C#CC4CCOC4C(F)(F)F)cn3)n2)cn1 (centres unmarked)
not met
CNCC1(F)CCN(c2cc(Nc3ccnc(-c4cnn(S(=O)(=O)C5CC5)c4)n3)ncc2C#Cc2cnn(C)c2)CC1
met
CC1(CO)CCN(c2cc(Nc3ccnc(-c4cnn(S(=O)(=O)C5CC5)c4)n3)ncc2C#CC2COC2)CC1
met
CC1(O)CCN(c2cc(Nc3ccnc(-c4cnn(S(=O)(=O)C5CC5)c4)n3)ncc2C#CC2CC3CCC2O3)CC1 (centres unmarked)
met
CN1CCN(Cc2ccc(C#Cc3cnc(Nc4ccnc(-c5cnn(S(=O)(=O)C6CC6)c5)n4)cc3N3CCC4(CCO4)CC3)cc2)CC1
met
O=S(=O)(C1CC1)n1cc(-c2nccc(Nc3cc(N4CCC5(CCCO5)CC4)c(C#Cc4ncc(CN5CCOCC5)cn4)cn3)n2)cn1
met
CC1(CO)CCN(c2cc(Nc3ccnc(-c4cnn(S(=O)(=O)C5CC5)c4)n3)ncc2C#CC2CCN(S(C)(=O)=O)CC2)CC1
met
CC(C)(O)[C@H]1CC[C@@H](Nc2cc(Nc3ccnc(-c4cnn(S(=O)(=O)C5CC5)c4)n3)ncc2C#Cc2cnn(C(F)(F)F)c2)CC1
not met
C[C@]1(O)CC[C@H](CNc2cc(Nc3ccnc(-c4cnn(S(=O)(=O)C5CC5)c4)n3)ncc2C#Cc2cnn(CCF)c2)CC1
not met
CC(=O)C1CCN(c2cc(Nc3ccnc(-c4cnn(S(=O)(=O)C5CC5)c4)n3)ncc2C#Cc2cnn(C(F)(F)F)c2)CC1
not met
O=S(=O)(C1CC1)n1cc(-c2nccc(Nc3cc(N4CCC[C@@H](O)C4)c(C#Cc4cnn(CCF)c4)cn3)n2)cn1
not met
CC1(C#Cc2cnc(Nc3ccnc(-c4cnn(S(=O)(=O)C5CC5)c4)n3)cc2N2CCC(C)(CO)CC2)CC1
met
CS(=O)(=O)N1CCC(C#Cc2cnc(Nc3ccnc(-c4cnn(S(=O)(=O)C5CC5)c4)n3)cc2NCC2CCC(CO)CC2)C1 (centres unmarked)
not met
O=S(=O)(C1CC1)n1cc(-c2nccc(Nc3cc(NC4CCC(CO)CC4)c(C#CC4CCOC4C(F)(F)F)cn3)n2)cn1 (centres unmarked)
not met
COC1(O)CCN(c2cc(Nc3ccnc(-c4cnn(S(=O)(=O)C5CC5)c4)n3)ncc2C#Cc2ccc(CN3CCN(C)CC3)cc2)CC1
met
CN1CCN(Cc2ccc(C#Cc3cnc(Nc4ccnc(-c5cnn(S(=O)(=O)C6CC6)c5)n4)cc3N[C@H]3CC[C@]4(CCC(=O)N4)CC3)cc2)CC1
met

* * *

Here, each record is paired with measured IC50 data.
studyTarget: EGFR L858R/C797S (Homo sapiens, UniProt P00533, C797S/L858R)
Sequence (P00533 25-1210 C797S/L858R): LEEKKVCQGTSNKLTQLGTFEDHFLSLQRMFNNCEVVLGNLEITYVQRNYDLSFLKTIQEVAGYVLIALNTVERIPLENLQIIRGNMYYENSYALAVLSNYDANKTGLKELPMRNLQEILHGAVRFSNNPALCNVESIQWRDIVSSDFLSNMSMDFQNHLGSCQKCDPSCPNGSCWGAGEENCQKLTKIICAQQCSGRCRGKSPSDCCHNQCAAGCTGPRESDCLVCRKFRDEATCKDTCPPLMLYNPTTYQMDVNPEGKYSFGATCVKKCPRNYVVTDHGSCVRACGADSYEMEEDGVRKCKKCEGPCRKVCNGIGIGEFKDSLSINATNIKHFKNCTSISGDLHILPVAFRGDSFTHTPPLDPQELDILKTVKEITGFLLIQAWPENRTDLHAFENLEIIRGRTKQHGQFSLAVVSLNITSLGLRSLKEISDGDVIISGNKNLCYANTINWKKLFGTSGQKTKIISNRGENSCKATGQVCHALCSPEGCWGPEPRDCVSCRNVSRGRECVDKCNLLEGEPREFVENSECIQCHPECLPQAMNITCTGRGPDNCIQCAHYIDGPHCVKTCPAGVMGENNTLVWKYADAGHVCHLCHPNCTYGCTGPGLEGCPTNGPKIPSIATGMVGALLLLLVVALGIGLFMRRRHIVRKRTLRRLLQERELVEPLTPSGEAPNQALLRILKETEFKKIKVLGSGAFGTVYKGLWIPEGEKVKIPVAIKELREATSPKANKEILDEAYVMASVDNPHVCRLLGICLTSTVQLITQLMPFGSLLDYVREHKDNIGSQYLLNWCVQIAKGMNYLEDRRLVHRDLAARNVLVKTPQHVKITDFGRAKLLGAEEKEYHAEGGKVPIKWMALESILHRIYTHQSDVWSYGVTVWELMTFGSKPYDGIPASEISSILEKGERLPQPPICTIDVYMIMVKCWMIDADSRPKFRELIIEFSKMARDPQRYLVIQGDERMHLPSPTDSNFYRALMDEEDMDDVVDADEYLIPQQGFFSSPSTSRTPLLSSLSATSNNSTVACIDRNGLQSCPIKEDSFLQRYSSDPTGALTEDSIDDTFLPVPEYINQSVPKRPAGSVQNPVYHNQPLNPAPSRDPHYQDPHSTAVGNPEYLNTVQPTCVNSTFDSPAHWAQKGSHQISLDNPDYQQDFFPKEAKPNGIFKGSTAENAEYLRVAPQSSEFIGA
protocolSummary: Biochemical EGFR kinase inhibition assay (Lance Ultra TR-FRET), double mutant L858R/C797S
details: IC50 L858R/C797S (nM), 100 μM ATP
endpointName: IC50 (nM)

CN(C)CCCn1cc(C#Cc2cnc(Nc3ccnc(-c4cnn(S(=O)(=O)C5CC5)c4)n3)cc2N2CCC(C)(CO)CC2)cn1 [Example 120]
1.3
CC1OCCC1C#Cc1cnc(Nc2ccnc(-c3cnn(S(=O)(=O)C4CC4)c3)n2)cc1N1CCC(C)(CO)CC1 (stereo not shown) [Example 438]
85.5
CNC1CCN(c2cc(Nc3ccnc(-c4cnn(S(=O)(=O)C5CC5)c4)n3)ncc2C#Cc2cnn(C)c2)CC1 [Example 130]
68.7
CN1CCC2(CC1)CCN(c1cc(Nc3ccnc(-c4cnn(S(=O)(=O)C5CC5)c4)n3)ncc1C#Cc1cnn(CC3CC3)c1)CC2 [Example 320]
44

* * *

studyTarget: EGFR Del19/T790M/C797S (Homo sapiens, UniProt P00533, C797S/DEL746-750/T790M)
Sequence (P00533 with tags, fused parts or gaps DEL746-750/T790M/C797S): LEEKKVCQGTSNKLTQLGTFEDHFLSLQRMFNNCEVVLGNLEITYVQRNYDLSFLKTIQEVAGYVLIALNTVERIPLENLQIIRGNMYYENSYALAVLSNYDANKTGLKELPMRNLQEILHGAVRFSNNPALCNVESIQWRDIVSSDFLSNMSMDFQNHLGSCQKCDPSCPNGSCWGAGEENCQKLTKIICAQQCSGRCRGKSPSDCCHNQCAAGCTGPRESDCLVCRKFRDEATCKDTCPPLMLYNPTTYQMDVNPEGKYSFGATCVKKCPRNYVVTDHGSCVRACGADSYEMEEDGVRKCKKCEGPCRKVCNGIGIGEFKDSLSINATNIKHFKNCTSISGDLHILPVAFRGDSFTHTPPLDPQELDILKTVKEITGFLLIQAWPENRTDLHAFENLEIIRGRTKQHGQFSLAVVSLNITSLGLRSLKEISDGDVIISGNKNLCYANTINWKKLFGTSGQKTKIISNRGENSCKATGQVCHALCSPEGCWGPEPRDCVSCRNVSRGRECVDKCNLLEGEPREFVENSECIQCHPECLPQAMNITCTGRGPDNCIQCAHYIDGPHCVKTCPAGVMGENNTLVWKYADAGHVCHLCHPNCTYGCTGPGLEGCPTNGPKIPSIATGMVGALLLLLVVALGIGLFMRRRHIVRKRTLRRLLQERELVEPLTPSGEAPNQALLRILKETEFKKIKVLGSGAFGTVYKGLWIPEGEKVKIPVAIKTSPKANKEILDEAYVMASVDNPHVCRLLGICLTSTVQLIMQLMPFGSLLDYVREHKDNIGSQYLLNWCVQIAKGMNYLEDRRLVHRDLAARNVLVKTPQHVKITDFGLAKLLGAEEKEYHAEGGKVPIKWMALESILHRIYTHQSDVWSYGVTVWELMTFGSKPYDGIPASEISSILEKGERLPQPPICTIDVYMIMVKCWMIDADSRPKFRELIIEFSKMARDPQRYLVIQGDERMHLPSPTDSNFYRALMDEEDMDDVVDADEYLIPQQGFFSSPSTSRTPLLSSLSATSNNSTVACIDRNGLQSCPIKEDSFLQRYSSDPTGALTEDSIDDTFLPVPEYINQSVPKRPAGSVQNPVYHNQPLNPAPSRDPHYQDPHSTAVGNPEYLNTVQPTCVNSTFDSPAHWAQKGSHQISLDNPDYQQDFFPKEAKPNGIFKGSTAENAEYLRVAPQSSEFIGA
protocolSummary: Biochemical EGFR kinase inhibition assay (Lance Ultra TR-FRET), triple mutant del19/T790M/C797S
details: IC50 Del19/T790M/C797S (nM), 100 μM ATP
Here, each record is paired with measured IC50 data.
endpointName: IC50 (nM)

CC1(CO)CCN(c2cc(Nc3ccnc(-c4cnn(S(=O)(=O)C5CC5)c4)n3)ncc2C#Cc2cccc(C(=O)N3CCOCC3)n2)CC1
0.9
O=S(=O)(C1CC1)n1cc(-c2nccc(Nc3cc(N[C@H]4CC[C@@H](CO)CC4)c(C#Cc4cnn(CC(F)(F)F)c4)cn3)n2)cn1
2
CC1(CO)CCN(c2cc(Nc3ccnc(-c4cnn(S(=O)(=O)C5CC5)c4)n3)ncc2C#CCC(F)(F)F)CC1
1.7
CN(C)CCC1CCN(c2cc(Nc3ccnc(-c4cnn(S(=O)(=O)C5CC5)c4)n3)ncc2C#CC2(C)CC2)CC1
0.3
Cn1cc(C#Cc2cnc(Nc3ccnc(-c4cnn(S(=O)(=O)C5CC5)c4)n3)cc2N2CC(C(C)(C)O)C2)cn1
1.9
Cn1cc(C#Cc2cnc(Nc3ccnc(-c4cnn(S(=O)(=O)C5CC5)c4)n3)cc2N2CCC(F)(CNCCF)CC2)cn1
1.2

* * *

studyTarget: EGFR Del19/T790M/C797S (Homo sapiens, UniProt P00533, C797S/DEL746-750/T790M)
protocolSummary: Biochemical EGFR kinase inhibition assay (Lance Ultra TR-FRET), triple mutant del19/T790M/C797S
details: Km ATP; read-out: IC50 Del19/T790M/C797S (nM) Km ATP
endpointName: IC50 (nM)

CC1(O)CC2(CCN(c3cc(Nc4ccnc(-c5cnn(S(=O)(=O)C6CC6)c5)n4)ncc3C#Cc3cnn(C(F)(F)F)c3)CC2)C1 [Example 104]
3.1
CC1(CO)CCN(c2cc(Nc3ccnc(-c4cnn(S(=O)(=O)C5CC5)c4)n3)ncc2C#Cc2cnn(CC3CCOCC3)c2)CC1 [Example 231]
1.7
CN(C)CCn1cc(C#Cc2cnc(Nc3ccnc(-c4cnn(S(=O)(=O)C5CC5)c4)n3)cc2N2CCC(F)(CO)CC2)cn1 [Example 117]
0.3

* * *

studyTarget: EGFR Del19/T790M/C797S (Homo sapiens, UniProt P00533, C797S/DEL746-750/T790M)
protocolSummary: Biochemical EGFR kinase inhibition assay (Lance Ultra TR-FRET), triple mutant del19/T790M/C797S
details: IC50 Del19/T790M/C797S (nM), 100 μM ATP
Here, each record is paired with measured IC50 data.
endpointName: IC50

CC1(CO)CCN(c2cc(Nc3ccnc(-c4cnn(S(=O)(=O)C5CC5)c4)n3)ncc2C#CCCF)CC1
0.7 nM
Cn1cc(C#Cc2cnc(Nc3ccnc(-c4cnn(S(=O)(=O)C5CC5)c4)n3)cc2N2CCC(CO)C2)cn1 (centres unmarked)
1.9 nM
Cn1cnc(C#Cc2cnc(Nc3ccnc(-c4cnn(S(=O)(=O)C5CC5)c4)n3)cc2NCC(C)(C)CO)c1
1.8 nM
CN1CCN(C2CCN(c3cc(Nc4ccnc(-c5cnn(S(=O)(=O)C6CC6)c5)n4)ncc3C#Cc3ccsc3)CC2)CC1
1.1 nM
O=S(=O)(C1CC1)n1cc(-c2nccc(Nc3cc(N4CCC5(CCCO5)CC4)c(C#Cc4cccnc4)cn3)n2)cn1
23.8 nM
CC(C)Nc1cc(Nc2ccnc(-c3cnn(S(=O)(=O)C4CC4)c3)n2)ncc1C#CCCCCNC(=O)N1CCOCC1
2.6 nM
CC1(CO)CCN(c2cc(Nc3ccnc(-c4cnn(S(=O)(=O)C5CC5)c4)n3)ncc2C#Cc2ccc(C(=O)N3CCOCC3)cc2)CC1
1.5 nM
CN(C)Cc1ccc(C#Cc2cnc(Nc3ccnc(-c4cnn(S(=O)(=O)C5CC5)c4)n3)cc2N2CCC(C)(CO)CC2)cc1
0.2 nM
